Target: T1, Mcl-1, Q07820
T1 chain: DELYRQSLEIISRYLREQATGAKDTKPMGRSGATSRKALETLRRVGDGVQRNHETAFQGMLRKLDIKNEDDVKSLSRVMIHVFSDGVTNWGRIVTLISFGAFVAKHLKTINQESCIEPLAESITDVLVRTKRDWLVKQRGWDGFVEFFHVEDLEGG
Assay: peptide SPOT array, c-Myc-tagged receptor at 1 uM or 100 nM, anti-c-Myc-Cy3
Record y whenever SPOT signal as a fraction of Bim BH3's signal on the same receptor and array is at 0.06 or higher; record n when lower.

[
  {
    "Binder": "WVKSIRICTPDGKLGDSCHPLTRKVP [PROK2]",
    "Assigned Label": "y"
  }
]

## Task Identify whether the reported SPOT signal as a fraction of Bim BH3's signal on the same receptor and array of the following binder is 0.06 or greater: GSGLHGWAFTDKQFAEMYVAKFAAKG [EEF2]
## Result n

## Task # bool: SPOT signal as a fraction of Bim BH3's signal on the same receptor and array of RLAHEHHCLRIKILLDCYYCVSGLPE [ADCY8] >= 0.06
## Result n

## Task Evaluate ASGNKEMIEALKQYAMDYSNKALEKG [IFIT3] : SPOT signal as a fraction of Bim BH3's signal on the same receptor and array at minimum 0.06?
## Result n

## Task Item KCCYGYCIDLLERLAEDTPFDFELYL [GRIN3B] with SPOT signal as a fraction of Bim BH3's signal on the same receptor and array of 0.06 or above?
## Result n

## Task Check the entry RLKVMPFAGVLEHIGGIMEIQLEENP [SLITRK2] : does SPOT signal as a fraction of Bim BH3's signal on the same receptor and array equal or exceed 0.06?
## Result n

## Task I'd appreciate it if you could say whether YFKLFRASGDMRTNLDNYLYEIQLSS [IGF2R] has SPOT signal as a fraction of Bim BH3's signal on the same receptor and array at least equal to 0.06.
## Result y

## Task Is the recorded value of SPOT signal as a fraction of Bim BH3's signal on the same receptor and array equal to or greater than 0.06 for this binder? CDLLGAKGKDILYIGDHIFGDILKSK [NT5C2]
## Result n

## Task // inclusive: SPOT signal as a fraction of Bim BH3's signal on the same receptor and array at least 0.06? input: VDSIRPKCQEDRHLCDQFSAEIARRR [MCF2L]
## Result y

## Task Please indicate if the recorded SPOT signal as a fraction of Bim BH3's signal on the same receptor and array for ISSLDLLPYGDRYIAKVLKNSIHEKF [IQGAP2] meets or exceeds 0.06.
## Result y

## Task Test whether the binder KLALEQRCRELRARLRRLEETLPRRI [KIF19] records SPOT signal as a fraction of Bim BH3's signal on the same receptor and array of 0.06 or higher.
## Result y

## Task // inclusive: SPOT signal as a fraction of Bim BH3's signal on the same receptor and array at least 0.06? input: FVGYNSTGAEDRHWSDMLANPRRPIA [SYT1]
## Result y

## Task Does the binder ERFEGFCVDMLRELAELLRFRYRLRL [GRIK5] have recorded SPOT signal as a fraction of Bim BH3's signal on the same receptor and array that is 0.06 or more?
## Result y
